Tested on: HCT-116
Assay summary: Antiproliferative activity against human HCT116 cells after 72 hrs by MTT assay
Assay type: functional, cell-based
Measurement setup: HCT-116, 72 h
Quantity name: IC50

* COc1cc2nccc(Oc3ccc(NC(=O)N4CCN(c5ccccc5)C4=O)cc3F)c2cc1OC | 300 nM

* * *

Test target: Hepatocyte growth factor receptor (Homo sapiens)
Assay summary: Inhibition of TPR-Met assessed as autophosphorylation
Measurement setup: read-out: IC50
Sequence (P08581 25-1390 limits assumed): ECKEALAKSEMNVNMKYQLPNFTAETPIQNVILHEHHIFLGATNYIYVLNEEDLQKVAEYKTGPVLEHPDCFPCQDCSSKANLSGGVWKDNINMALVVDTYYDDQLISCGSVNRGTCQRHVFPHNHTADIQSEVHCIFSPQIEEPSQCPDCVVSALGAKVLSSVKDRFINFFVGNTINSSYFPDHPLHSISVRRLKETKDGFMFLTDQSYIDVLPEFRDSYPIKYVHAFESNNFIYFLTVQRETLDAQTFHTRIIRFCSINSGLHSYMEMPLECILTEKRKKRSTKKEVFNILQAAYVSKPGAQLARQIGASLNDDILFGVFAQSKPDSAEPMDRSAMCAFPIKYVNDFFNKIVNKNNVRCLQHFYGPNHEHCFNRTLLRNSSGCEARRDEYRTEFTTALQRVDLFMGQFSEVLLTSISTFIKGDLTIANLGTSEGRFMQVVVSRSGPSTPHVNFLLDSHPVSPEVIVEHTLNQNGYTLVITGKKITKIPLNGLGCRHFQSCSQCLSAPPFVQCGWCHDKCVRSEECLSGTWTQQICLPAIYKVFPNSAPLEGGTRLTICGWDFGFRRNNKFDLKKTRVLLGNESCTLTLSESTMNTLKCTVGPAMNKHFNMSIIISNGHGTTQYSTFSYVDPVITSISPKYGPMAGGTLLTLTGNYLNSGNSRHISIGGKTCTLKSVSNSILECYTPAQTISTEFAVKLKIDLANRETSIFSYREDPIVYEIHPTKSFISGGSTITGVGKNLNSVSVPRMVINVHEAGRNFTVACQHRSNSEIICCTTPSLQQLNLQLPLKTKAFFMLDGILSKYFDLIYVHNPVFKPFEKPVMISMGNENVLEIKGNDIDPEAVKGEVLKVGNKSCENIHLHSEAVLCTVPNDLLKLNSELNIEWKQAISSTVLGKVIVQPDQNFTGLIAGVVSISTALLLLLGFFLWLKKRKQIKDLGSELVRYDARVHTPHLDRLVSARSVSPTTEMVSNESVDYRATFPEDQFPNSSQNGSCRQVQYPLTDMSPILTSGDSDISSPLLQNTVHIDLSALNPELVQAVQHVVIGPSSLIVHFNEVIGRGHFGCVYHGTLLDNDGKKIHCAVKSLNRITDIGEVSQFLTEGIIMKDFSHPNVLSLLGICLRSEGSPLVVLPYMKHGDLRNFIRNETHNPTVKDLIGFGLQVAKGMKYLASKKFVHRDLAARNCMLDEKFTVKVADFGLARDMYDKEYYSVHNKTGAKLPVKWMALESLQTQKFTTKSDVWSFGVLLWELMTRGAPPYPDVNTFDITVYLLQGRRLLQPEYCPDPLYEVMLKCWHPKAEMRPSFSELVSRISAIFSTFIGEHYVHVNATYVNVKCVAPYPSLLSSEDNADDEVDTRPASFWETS
Quantity name: IC50 (nM)

* COc1cc2nccc(Oc3ccc(NC(=O)N4CCN(N5CCCCC5)C4=O)cc3F)c2cc1OC | 640
* COc1cc2c(Oc3ccc(NC(=O)N4CCN(c5ccccc5)C4=O)cc3F)ccnc2cc1OCC1CCNCC1 | 80
* COc1cc2nccc(Oc3ccc(NC(=O)N4CCN(c5ccccc5F)C4=O)cc3F)c2cc1OC | 370
* COc1cc2nccc(Oc3ccc(NC(=O)N4CCN(C5CCCCC5)C4=O)cc3F)c2cc1OC | 860
* COCCOc1cc2nccc(Oc3ccc(NC(=O)N4CCN(c5ccccc5)C4=O)cc3F)c2cc1OCCOC | 20
* COc1cc2nccc(Oc3ccc(NC(=O)N4CCN(c5cccc(F)c5)C4=O)cc3F)c2cc1OC | 200
* COc1cc2nccc(Oc3ccc(NC(=O)N4CCN(c5ccc(F)cc5)C4=O)cc3F)c2cc1OCCCN1CCOCC1 | 30
* COc1cc2ncnc(Nc3ccc(NC(=O)N4CCN(c5ccccc5)C4=O)cc3F)c2cc1OC | 3300

* * *

Test target: UniProtKB P08581
Assay summary: Inhibition of GST-tagged c-Met expressed in Sf9 cells
Sequence (P08581 whole entry): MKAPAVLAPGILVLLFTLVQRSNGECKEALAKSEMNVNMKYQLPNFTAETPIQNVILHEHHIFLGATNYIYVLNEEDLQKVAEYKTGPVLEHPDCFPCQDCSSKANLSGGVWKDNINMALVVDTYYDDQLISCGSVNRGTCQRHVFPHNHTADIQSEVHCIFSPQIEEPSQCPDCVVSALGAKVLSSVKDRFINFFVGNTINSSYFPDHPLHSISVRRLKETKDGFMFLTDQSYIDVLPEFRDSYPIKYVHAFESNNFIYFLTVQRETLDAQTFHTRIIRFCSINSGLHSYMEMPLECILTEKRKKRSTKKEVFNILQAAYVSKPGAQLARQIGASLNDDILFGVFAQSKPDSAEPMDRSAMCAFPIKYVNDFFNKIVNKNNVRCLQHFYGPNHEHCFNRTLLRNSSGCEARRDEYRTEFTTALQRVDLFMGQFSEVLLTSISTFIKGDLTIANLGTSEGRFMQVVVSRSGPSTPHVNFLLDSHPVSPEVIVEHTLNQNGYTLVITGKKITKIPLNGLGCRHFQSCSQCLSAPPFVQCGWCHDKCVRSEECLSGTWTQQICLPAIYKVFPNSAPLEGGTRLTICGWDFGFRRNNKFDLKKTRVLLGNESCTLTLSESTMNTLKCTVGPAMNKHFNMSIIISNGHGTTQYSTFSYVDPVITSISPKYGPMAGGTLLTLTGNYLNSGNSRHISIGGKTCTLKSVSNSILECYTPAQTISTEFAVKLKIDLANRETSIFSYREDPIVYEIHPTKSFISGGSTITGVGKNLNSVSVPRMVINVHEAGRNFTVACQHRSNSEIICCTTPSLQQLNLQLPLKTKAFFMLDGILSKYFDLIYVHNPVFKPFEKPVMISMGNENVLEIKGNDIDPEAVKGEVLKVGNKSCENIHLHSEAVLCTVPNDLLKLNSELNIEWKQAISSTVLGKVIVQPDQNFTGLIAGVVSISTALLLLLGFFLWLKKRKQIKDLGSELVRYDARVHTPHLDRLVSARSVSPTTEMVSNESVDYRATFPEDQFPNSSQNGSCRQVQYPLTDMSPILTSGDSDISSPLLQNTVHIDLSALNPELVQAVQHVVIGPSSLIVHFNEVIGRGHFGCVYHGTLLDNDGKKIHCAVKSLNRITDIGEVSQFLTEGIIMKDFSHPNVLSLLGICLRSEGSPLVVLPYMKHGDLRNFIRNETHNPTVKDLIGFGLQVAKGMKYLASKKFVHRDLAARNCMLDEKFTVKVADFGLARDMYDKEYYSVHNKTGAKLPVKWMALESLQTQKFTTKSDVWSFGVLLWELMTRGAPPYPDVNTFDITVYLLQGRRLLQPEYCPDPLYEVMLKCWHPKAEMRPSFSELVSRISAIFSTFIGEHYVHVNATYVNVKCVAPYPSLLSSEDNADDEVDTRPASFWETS
pIC50: −log10 of the molar value.
Record true (1) whenever pIC50 is at 7 or higher; record false (0) when lower.

• COc1cc2nccc(Oc3ccc(NC(=O)N4CCN(c5cccc(F)c5)C4=O)cc3F)c2cc1OC = true (1)
• COc1cc2nccc(Oc3ccc(NC(=O)N4CCN(c5ccc(F)cc5)C4=O)cc3F)c2cc1OCCCN1CCOCC1 = true (1)
• COc1cc2nccc(Oc3ccc(NC(=O)N4CCN(c5ccc(F)cc5)C4=O)cc3)c2cc1OC = true (1)
• COc1cc2nccc(Oc3ccc(NC(=O)N4CCN(c5ccccn5)C4=O)cc3F)c2cc1OC = true (1)
• COc1cc2ncnc(Nc3ccc(NC(=O)N4CCN(c5ccccc5)C4=O)cc3F)c2cc1OC = false (0)
• COc1cc2c(Oc3ccc(NC(=O)N4CCN(c5ccccc5)C4=O)cc3F)ccnc2cc1OCC1CCN(C)CC1 = true (1)
• COc1cc2nccc(Oc3ccc(NC(=O)N4CCN(c5ccccc5)C4=O)c(F)c3)c2cc1OC = true (1)
• COc1cc2nccc(Sc3ccc(NC(=O)N4CCN(c5ccc(F)cc5)C4=O)cc3)c2cc1OC = true (1)
• COc1cc2ncnc(N(C)c3ccc(NC(=O)N4CCN(c5ccccc5)C4=O)cc3F)c2cc1OC = false (0)
• COc1cc2c(Oc3ccc(NC(=O)N4CCN(c5ccccc5)C4=O)cc3F)ccnc2cc1OCCCN1CCOCC1 = true (1)
• COCCOc1cc2nccc(Oc3ccc(NC(=O)N4CCN(c5ccccc5)C4=O)cc3F)c2cc1OCCOC = true (1)
• COc1cc2c(Oc3ccc(NC(=O)N4CCN(c5ccccc5)C4=O)cc3F)ccnc2cc1OCC1CCNCC1 = true (1)
• COc1cc2nccc(Oc3ccc(NC(=O)N4CCN(c5ccccc5F)C4=O)cc3F)c2cc1OC = true (1)
• COc1cc2nccc(Oc3ccc(NC(=O)N4CCN(c5ccccc5OC)C4=O)cc3F)c2cc1OC = true (1)
• COc1cc2ncnc(Oc3ccc(NC(=O)N4CCN(c5ccccc5)C4=O)cc3F)c2cc1OC = true (1)
• COc1cc2nccc(Oc3ccc(NC(=O)N4CCN(N5CCCCC5)C4=O)cc3F)c2cc1OC = true (1)
• COc1cc2nccc(Nc3ccc(NC(=O)N4CCN(c5ccccc5)C4=O)cc3F)c2cc1OC = false (0)
• COc1cc2nccc(Oc3ccc(NC(=O)N4CCN(c5ccccc5)C4=O)cn3)c2cc1OC = true (1)
• COc1cc2nccc(N(C)c3ccc(NC(=O)N4CCN(c5ccccc5)C4=O)cc3F)c2cc1OC = false (0)
• COc1cc2nccc(Oc3ccc(NC(=O)N4CCN(c5ccccc5)C4=O)cc3)c2cc1OC = true (1)
• C=CCN1CCN(C(=O)Nc2ccc(Oc3ccnc4cc(OC)c(OC)cc34)c(F)c2)C1=O = false (0)
• COc1cc2nccc(Oc3ccc(NC(=O)N4CCN(c5ccc(F)cc5)C4=O)cc3F)c2cc1OC = true (1)
• COc1cc2nccc(Oc3ccc(NC(=O)N4CCN(c5ccccc5)C4=O)nc3)c2cc1OC = true (1)

* * *

Test target: Hepatocyte growth factor receptor (Homo sapiens, UniProt P08581)
Assay summary: Inhibition of TPR-Met assessed as autophosphorylation
Measurement setup: read-out: IC50
pIC50: −log10 of the molar value.
Listing of recorded pIC50 by entry.
Quantity name: pIC50

* COc1cc2nccc(Oc3ccc(NC(=O)N4CCN(c5ccccc5)C4=O)cc3F)c2cc1OC | 7.05
* COc1cc2nccc(Oc3ccc(NC(=O)N4CCN(c5ccncc5)C4=O)cc3F)c2cc1OC | 6.20
* COc1cc2nccc(Sc3ccc(NC(=O)N4CCN(c5ccc(F)cc5)C4=O)cc3)c2cc1OC | 7.10
* COc1cc2c(Oc3ccc(NC(=O)N4CCN(c5ccccc5)C4=O)cc3F)ccnc2cc1OCC1CCN(C)CC1 | 6.89
* COc1cc2nccc(Oc3ccc(NC(=O)N4CCN(c5ccc(F)cc5)C4=O)cc3F)c2cc1OC | 7.05
* COc1cc2c(Oc3ccc(NC(=O)N4CCN(c5ccccc5)C4=O)cc3F)ccnc2cc1OCCCN1CCOCC1 | 7.30
* COc1cc2nccc(Oc3ccc(NC(=O)N4CCN(c5ccccc5)C4=O)cn3)c2cc1OC | 5.30
* COc1cc2nccc(Oc3ccc(NC(=O)N4CCN(c5ccccc5OC)C4=O)cc3F)c2cc1OC | 6.82
* COc1cc2nccc(Oc3ccc(NC(=O)N4CCN(c5ccc(F)cc5)C4=O)cc3)c2cc1OC | 6.82
* COc1cc2nccc(Oc3ccc(NC(=O)N4CCN(c5ccccc5)C4=O)cc3)c2cc1OC | 6.62

* * *

Assay summary: Inhibition of VEGF-induced ERK phosphorylation in HUVEC
Format: cell-based
Measurement setup: Homo sapiens
Quantity name: IC50

* COc1cc2nccc(Oc3ccc(NC(=O)N4CCN(c5ccccc5)C4=O)cc3F)c2cc1OC | < 1 nM

* * *

Listing of entries alongside the reported IC50.
Test target: UniProt:P08581
Assay summary: Inhibition of TPR-Met assessed as autophosphorylation
Measurement setup: read-out: IC50
Quantity name: IC50

• COc1cc2ncnc(Oc3ccc(NC(=O)N4CCN(c5ccccc5)C4=O)cc3F)c2cc1OC = > 1 µM
• COc1cc2nccc(Oc3ccc(NC(=O)N4CCN(c5ccccc5)C4=O)nc3)c2cc1OC = > 10 µM
• COc1cc2nccc(Oc3ccc(NC(=O)N4CCN(c5ccccc5)C4=O)c(F)c3)c2cc1OC = > 10 µM
